The entries below come with measured pKd values attached.
target: T1, recombinant human IL-17A (human, UniProt Q16552 24-155); experiment: SPR (BIAcore T200), IL-17A coupled to CM5 chip, single-cycle kinetics
T1 construct: Bought recombinant protein (Peprotech AF-200-17); also called Peprotech AF-200-17
T1 sequence (Q16552 24-155): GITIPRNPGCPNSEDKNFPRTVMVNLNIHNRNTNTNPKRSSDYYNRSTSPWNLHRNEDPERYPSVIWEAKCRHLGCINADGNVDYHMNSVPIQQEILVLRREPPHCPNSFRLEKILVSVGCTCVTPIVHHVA
pKd: −log10 of the molar value.
quantity: pKd

{"columns": ["binder", "number"],
 "data": [
  ["Clone 3.5 (VHH, Human single VH domain) VHH: QVQLVQSGAEVKKPGASVKVSCAASGYTFTDYYLHWVRQAPGQGLEWMGWINPNTGTTKYAREFEGRVTMTRDTSISTAYMELSRLRSDDTAVYYCASLDRDWRSPNDYFGWFDSWGQGTLVTVSS", 8.66],
  ["Clone 3.11 (VHH, Human single VH domain) VHH: QVQLVQSGAEVKKPGASVKVSCKASGYNFDAYHINWVRQAPGQGLEWMGSIKPNSGATKYAQKFQGRVTITRDTSISTAYMELSRLRSDDTAVYYCASLDRDTWYPHSYFGWFDSWGQGTLVTVSS", 9.36],
  ["Clone 3.6 (VHH, Human single VH domain) VHH: QVQLVQSGAEVKKPGASVKVSCAASGYTFTDYYLHWVRQAPGQGLEWMGWINPNTGTTKYAREFEGRVTMTRDTSISTAYMELSRLRSDDTAVYYCASLDRDWRSPNDYYGWFDSWGQGTLVTVSS", 9.08]
]}
